System: cancer cells
EXPERIMENT_DESCRIPTION: MTT cytotoxic assay of esterification products (Cytotoxicity activity)
Format: cell-based, human
CONDITION_NOTES: esterification products isolated with HPLC; graded strong / moderate / weak
ENDPOINT_NAME: Cytotoxicity activity

Take a look at these entries with their results.
- CC=C(C)C(=O)OCC1(C)C(OC(=O)CCCCC)CCC2(C)C1CCC1(C)C2CC=C2C3CC(C)(C)C(OC(=O)CCCCC)C(O)C3(COC(=O)C(C)=CC)C(O)CC21C (stereo not drawn): weak
- CC=C(C)C(=O)OCC1(C)C(O)CCC2(C)C1CCC1(C)C2CC=C2C3CC(C)(C)C(O)C(OC(=O)C=Cc4ccccc4)C3(COC(=O)C(C)=CC)C(O)CC21C (stereo not drawn): moderate
- CC=C(C)C(=O)OCC1(C)C(O)CCC2(C)C1CCC1(C)C2CC=C2C3CC(C)(C)C(OC(=O)C(CC)CC)C(O)C3(COC(=O)C(CC)CC)C(O)CC21C (stereo not drawn): moderate
- C=CCCC(=O)OC1CCC2(C)C(CCC3(C)C2CC=C2C4CC(C)(C)C(O)C(O)C4(COC(=O)C(C)=CC)C(O)CC23C)C1(C)COC(=O)C(C)=CC (stereo not drawn): moderate
- CC=C(C)C(=O)OCC1(C)C(O)CCC2(C)C1CCC1(C)C2CC=C2C3CC(C)(C)C(OC(=O)C=Cc4ccccc4)C(O)C3(CO)C(O)CC21C (stereo not drawn): moderate

Q: Which value of Cytotoxicity activity has been reported for CC=CC(=O)OC1C(OC(=O)C=CC)C2(COC(=O)C(C)=CC)C(O)CC3(C)C(=CCC4C5(C)CCC(O)C(C)(COC(=O)C(C)=CC)C5CCC43C)C2CC1(C)C (stereo not drawn) in the records?
Result: weak

Q: Which value of Cytotoxicity activity has been reported for CC=C(C)C(=O)OCC1(C)C(O)CCC2(C)C1CCC1(C)C2CC=C2C3CC(C)(C)C(O)C(OC(=O)C(CC)CC)C3(COC(=O)C(C)=CC)C(O)CC21C (stereo not drawn) in the records?
Result: moderate

Q: Which value of Cytotoxicity activity has been reported for CC=C(C)C(=O)OCC1(C)C(O)CCC2(C)C1CCC1(C)C2CC=C2C3CC(C)(C)C(O)C(O)C3(CO)C(O)CC21C (stereo not drawn) in the records?
Result: moderate

Q: Which value of Cytotoxicity activity has been reported for CC=C(C)C(=O)OCC1(C)C(O)CCC2(C)C1CCC1(C)C2CC=C2C3CC(C)(C)C(OC(=O)C=Cc4ccccc4)C(O)C3(COC(=O)C(C)=CC)C(O)CC21C (stereo not drawn) in the records?
Result: moderate

###

Test system: cancer cells
EXPERIMENT_DESCRIPTION: MTT cytotoxic assay of esterification products (Cytotoxicity activity)
Format: cell-based, human
CONDITION_NOTES: esterification products isolated with HPLC; graded strong / moderate / weak
ENDPOINT_NAME: Cytotoxicity activity

* CC=CC(=O)OCC12C(O)CC3(C)C(=CCC4C5(C)CCC(O)C(C)(COC(=O)C(C)=CC)C5CCC43C)C1CC(C)(C)C(OC(=O)C=CC)C2O (stereo not drawn) | moderate
* CC=C(C)C(=O)OCC1(C)C(O)CCC2(C)C1CCC1(C)C2CC=C2C3CC(C)(C)C(OC(=O)CCCCC)C(O)C3(COC(=O)CCCCC)C(O)CC21C (stereo not drawn) | moderate
* CC=C(C)C(=O)OCC1(C)C(OC(=O)C=C(C)C)CCC2(C)C1CCC1(C)C2CC=C2C3CC(C)(C)C(OC(=O)C=C(C)C)C(O)C3(COC(=O)C(C)=CC)C(O)CC21C (stereo not drawn) | weak

###

Tested on: cancer cells
EXPERIMENT_DESCRIPTION: MTT cytotoxic assay of esterification products (Cytotoxicity activity)
Format: cell-based, human
CONDITION_NOTES: MTT cytotoxic assay, isolated esterification products of E4A
ENDPOINT_NAME: Cytotoxicity activity

Take a look at these entries with their results.
* CCC(CC)C(=O)OCC1(C)C(O)CCC2(C)C1CCC1(C)C2CC=C2C3CC(C)(C)C(O)C(OC(=O)C(CC)CC)C3(COC(=O)C(CC)CC)C(O)CC21C (centres unmarked) [Compound E5] | moderate
* CCCCCC(=O)OCC12C(O)CC3(C)C(=CCC4C5(C)CCC(OC(=O)CCCCC)C(C)(CO)C5CCC43C)C1CC(C)(C)C(O)C2O (centres unmarked) [Compound D27] | moderate
* CC=C(C)C(=O)OCC1(C)C(O)CCC2(C)C1CCC1(C)C2CC=C2C3CC(C)(C)C(O)C(O)C3(COC(=O)C(C)=CC)C(OC(=O)C(C)=CC)CC21C (centres unmarked) [Compound A7] | moderate
* CC=C(C)C(=O)OCC1(C)C(O)CCC2(C)C1CCC1(C)C2CC=C2C3CC(C)(C)C(OC(=O)C(C)=CC)C(OC(=O)C(C)=CC)C3(COC(=O)C(C)=CC)C(O)CC21C (centres unmarked) [Compound A8] | weak
* CC=C(C)C(=O)OC1C(OC(=O)C(C)=CC)C2(CO)C(O)CC3(C)C(=CCC4C5(C)CCC(O)C(C)(CO)C5CCC43C)C2CC1(C)C (centres unmarked) [Compound A24] | moderate
* CC(C)=CC(=O)OCC1(C)C(OC(=O)C=C(C)C)CCC2(C)C1CCC1(C)C2CC=C2C3CC(C)(C)C(OC(=O)C=C(C)C)C(OC(=O)C=C(C)C)C3(COC(=O)C=C(C)C)C(OC(=O)C=C(C)C)CC21C (centres unmarked) [Compound B19] | none
* CCC(CC)C(=O)OCC12C(O)CC3(C)C(=CCC4C5(C)CCC(OC(=O)C(CC)CC)C(C)(CO)C5CCC43C)C1CC(C)(C)C(O)C2O (centres unmarked) [Compound E27] | moderate
* CCC(CC)C(=O)OCC1(C)C(O)CCC2(C)C1CCC1(C)C2CC=C2C3CC(C)(C)C(O)C(O)C3(CO)C(O)CC21C (centres unmarked) [Compound E1] | moderate
* CCC(CC)C(=O)OCC1(C)C(O)CCC2(C)C1CCC1(C)C2CC=C2C3CC(C)(C)C(O)C(OC(=O)C(CC)CC)C3(CO)C(O)CC21C (centres unmarked) [Compound E30] | moderate
* CCC(CC)C(=O)OCC1(C)C(O)CCC2(C)C1CCC1(C)C2CC=C2C3CC(C)(C)C(OC(=O)C(CC)CC)C(O)C3(COC(=O)C(CC)CC)C(OC(=O)C(CC)CC)CC21C (centres unmarked) [Compound E13] | weak

Now turn to the next compound.
Q: Which value of Cytotoxicity activity has been reported for CCC(CC)C(=O)OC1C(OC(=O)C(CC)CC)C2(CO)C(O)CC3(C)C(=CCC4C5(C)CCC(OC(=O)C(CC)CC)C(C)(CO)C5CCC43C)C2CC1(C)C (centres unmarked) [Compound E23] in the records?
Result: moderate

###

System: cancer cells
EXPERIMENT_DESCRIPTION: MTT cytotoxic assay of esterification products (Cytotoxicity activity)
Assay type: cell-based, human
CONDITION_NOTES: esterification products of core compound E4A with (2E)-2-pentenoyl chloride (2pe = 2-pentenoyl)
ENDPOINT_NAME: Cytotoxicity activity

Take a look at these entries with their results.
* CC1(C)CC2C3=CCC4C5(C)CCC(OC(=O)c6ccccc6)C(C)(COC(=O)c6ccccc6)C5CCC4(C)C3(C)CC(O)C2(CO)C(O)C1O (stereo not drawn) | moderate
* CC1(C)CC2C3=CCC4C5(C)CCC(OC(=O)c6ccccc6)C(C)(COC(=O)c6ccccc6)C5CCC4(C)C3(C)CC(OC(=O)c3ccccc3)C2(COC(=O)c2ccccc2)C(OC(=O)c2ccccc2)C1OC(=O)c1ccccc1 (stereo not drawn) | none
* CC1(C)CC2C3=CCC4C5(C)CCC(O)C(C)(CO)C5CCC4(C)C3(C)CC(O)C2(COC(=O)c2ccccc2)C(O)C1OC(=O)c1ccccc1 (stereo not drawn) | moderate
* CC1(C)CC2C3=CCC4C5(C)CCC(O)C(C)(CO)C5CCC4(C)C3(C)CC(O)C2(COC(=O)c2ccccc2)C(OC(=O)c2ccccc2)C1OC(=O)c1ccccc1 (stereo not drawn) | moderate
* CC1(C)CC2C3=CCC4C5(C)CCC(O)C(C)(CO)C5CCC4(C)C3(C)CC(OC(=O)c3ccccc3)C2(CO)C(OC(=O)c2ccccc2)C1OC(=O)c1ccccc1 (stereo not drawn) | moderate

Q: Which value of Cytotoxicity activity has been reported for CC1(C)CC2C3=CCC4C5(C)CCC(OC(=O)c6ccccc6)C(C)(COC(=O)c6ccccc6)C5CCC4(C)C3(C)CC(OC(=O)c3ccccc3)C2(COC(=O)c2ccccc2)C(OC(=O)c2ccccc2)C1O (stereo not drawn) in the records?
Result: weak

Q: Which value of Cytotoxicity activity has been reported for CC1(C)CC2C3=CCC4C5(C)CCC(O)C(C)(CO)C5CCC4(C)C3(C)CC(O)C2(COC(=O)c2ccccc2)C(OC(=O)c2ccccc2)C1O (stereo not drawn) in the records?
Result: moderate

Q: Which value of Cytotoxicity activity has been reported for CC1(C)CC2C3=CCC4C5(C)CCC(OC(=O)c6ccccc6)C(C)(CO)C5CCC4(C)C3(C)CC(O)C2(COC(=O)c2ccccc2)C(O)C1O (stereo not drawn) in the records?
Result: moderate

Q: Which value of Cytotoxicity activity has been reported for CC1(C)CC2C3=CCC4C5(C)CCC(O)C(C)(COC(=O)c6ccccc6)C5CCC4(C)C3(C)CC(OC(=O)c3ccccc3)C2(COC(=O)c2ccccc2)C(O)C1OC(=O)c1ccccc1 (stereo not drawn) in the records?
Result: weak

Q: Which value of Cytotoxicity activity has been reported for CC1(C)CC2C3=CCC4C5(C)CCC(O)C(C)(COC(=O)c6ccccc6)C5CCC4(C)C3(C)CC(OC(=O)c3ccccc3)C2(COC(=O)c2ccccc2)C(OC(=O)c2ccccc2)C1O (stereo not drawn) in the records?
Result: weak

Q: Which value of Cytotoxicity activity has been reported for CC1(C)CC2C3=CCC4C5(C)CCC(O)C(C)(CO)C5CCC4(C)C3(C)CC(O)C2(CO)C(OC(=O)c2ccccc2)C1OC(=O)c1ccccc1 (stereo not drawn) in the records?
Result: moderate

Q: Which value of Cytotoxicity activity has been reported for CC1(C)CC2C3=CCC4C5(C)CCC(OC(=O)c6ccccc6)C(C)(COC(=O)c6ccccc6)C5CCC4(C)C3(C)CC(O)C2(COC(=O)c2ccccc2)C(OC(=O)c2ccccc2)C1O (stereo not drawn) in the records?
Result: weak

Q: Which value of Cytotoxicity activity has been reported for CC1(C)CC2C3=CCC4C5(C)CCC(OC(=O)c6ccccc6)C(C)(COC(=O)c6ccccc6)C5CCC4(C)C3(C)CC(OC(=O)c3ccccc3)C2(COC(=O)c2ccccc2)C(O)C1OC(=O)c1ccccc1 (stereo not drawn) in the records?
Result: weak

Q: Which value of Cytotoxicity activity has been reported for CC1(C)CC2C3=CCC4C5(C)CCC(O)C(C)(COC(=O)c6ccccc6)C5CCC4(C)C3(C)CC(OC(=O)c3ccccc3)C2(COC(=O)c2ccccc2)C(OC(=O)c2ccccc2)C1OC(=O)c1ccccc1 (stereo not drawn) in the records?
Result: weak

Q: Which value of Cytotoxicity activity has been reported for CC1(C)CC2C3=CCC4C5(C)CCC(O)C(C)(COC(=O)c6ccccc6)C5CCC4(C)C3(C)CC(OC(=O)c3ccccc3)C2(CO)C(O)C1O (stereo not drawn) in the records?
Result: moderate

Q: Which value of Cytotoxicity activity has been reported for CC1(C)CC2C3=CCC4C5(C)CCC(O)C(C)(CO)C5CCC4(C)C3(C)CC(OC(=O)c3ccccc3)C2(COC(=O)c2ccccc2)C(O)C1O (stereo not drawn) in the records?
Result: moderate

Q: Which value of Cytotoxicity activity has been reported for CC1(C)CC2C3=CCC4C5(C)CCC(OC(=O)c6ccccc6)C(C)(CO)C5CCC4(C)C3(C)CC(O)C2(CO)C(OC(=O)c2ccccc2)C1OC(=O)c1ccccc1 (stereo not drawn) in the records?
Result: moderate

Q: Which value of Cytotoxicity activity has been reported for CC1(C)CC2C3=CCC4C5(C)CCC(OC(=O)c6ccccc6)C(C)(COC(=O)c6ccccc6)C5CCC4(C)C3(C)CC(O)C2(COC(=O)c2ccccc2)C(OC(=O)c2ccccc2)C1OC(=O)c1ccccc1 (stereo not drawn) in the records?
Result: weak
